pIC50: −log10 of the molar value.
Recorded pIC50 for compounds tested on Prolyl endopeptidase FAP (Homo sapiens, UniProt Q12884), drawn from a number of studies.
Sequence (Q12884 whole entry): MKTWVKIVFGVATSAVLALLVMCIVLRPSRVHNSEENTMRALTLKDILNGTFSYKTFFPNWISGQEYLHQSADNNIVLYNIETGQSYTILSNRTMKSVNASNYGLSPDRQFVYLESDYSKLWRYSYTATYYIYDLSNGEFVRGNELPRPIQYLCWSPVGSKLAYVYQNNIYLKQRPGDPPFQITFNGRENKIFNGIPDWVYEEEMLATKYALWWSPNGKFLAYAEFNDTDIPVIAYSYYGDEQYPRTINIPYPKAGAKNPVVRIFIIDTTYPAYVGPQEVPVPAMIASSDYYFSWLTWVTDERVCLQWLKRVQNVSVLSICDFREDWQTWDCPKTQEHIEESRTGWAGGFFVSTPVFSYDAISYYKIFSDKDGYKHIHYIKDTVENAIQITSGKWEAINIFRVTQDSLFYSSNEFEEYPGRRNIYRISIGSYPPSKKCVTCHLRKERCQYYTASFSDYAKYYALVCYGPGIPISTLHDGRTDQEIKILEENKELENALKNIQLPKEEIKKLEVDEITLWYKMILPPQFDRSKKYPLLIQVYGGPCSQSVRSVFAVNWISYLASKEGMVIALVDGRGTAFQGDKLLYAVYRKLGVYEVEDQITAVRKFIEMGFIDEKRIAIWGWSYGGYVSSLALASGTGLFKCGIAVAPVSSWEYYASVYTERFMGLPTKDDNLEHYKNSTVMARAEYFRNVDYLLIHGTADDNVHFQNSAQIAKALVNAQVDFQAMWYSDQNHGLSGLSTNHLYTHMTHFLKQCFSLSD
measure_name: pIC50

{"compound": "CN(C)C(=O)[C@@H](c1ccc(-c2ccc3nccn3c2)cc1)[C@H](N)C(=O)N1CC[C@H](F)C1", "value_reported": "< 4.40"}
{"compound": "Cc1nc2ccc(-c3ccc([C@H](C(=O)N(C)C)[C@H](N)C(=O)N4CC[C@H](F)C4)cc3)cn2n1", "value_reported": "< 4.40"}
{"compound": "CN([C@H]1CC[C@H]([C@H](N)Cc2cc(F)ccc2F)CC1)S(=O)(=O)c1cccc(C(N)=O)c1", "value_reported": "< 4.46"}
{"compound": "CN([C@H]1CC[C@H]([C@H](N)Cc2cc(F)ccc2F)CC1)S(=O)(=O)c1cccnc1", "value_reported": "< 4.46"}
{"compound": "CN(C(=O)C(C)(C)C)[C@H]1CC[C@H]([C@H](N)Cc2cc(F)ccc2F)CC1", "value_reported": "< 4.46"}
{"compound": "N#C[C@@H]1CC(F)(F)CN1C(=O)CNC(=O)c1csc(Cc2ccc(F)cc2Cl)n1", "value_reported": 7.22}
{"compound": "COc1ccc(CC2c3nnc(C(F)(F)F)n3CCN2C(=O)C[C@H](N)Cc2cc(F)c(F)cc2F)cc1 (stereo in doubt; 43a)", "value_reported": "< 5.00"}
{"compound": "CN(C(=O)CCC(=O)O)[C@H]1CC[C@H]([C@H](N)Cc2cc(F)ccc2F)CC1", "value_reported": "< 4.46"}
{"compound": "CC#CCn1c(N2CCC[C@@H](N)C2)nc2c1C(=O)N(Cc1cccc3ccccc13)C1=NCCCN12", "value_reported": 4.65}
{"compound": "Cl.N[C@@H](CC(=O)N1CCn2c(nnc2C(F)(F)F)C1Cc1cc(C(F)(F)F)cc(C(F)(F)F)c1)Cc1cc(F)c(F)cc1F (stereo in doubt; 48b)", "value_reported": "< 5.00"}
{"compound": "CC(C)[C@H](NC(=O)c1cccnc1)C(=O)N1CCC[C@H]1B(O)O", "value_reported": "< 4.00"}
{"compound": "C=CCC1c2nnc(C(F)(F)F)n2CCN1C(=O)C[C@H](N)Cc1cc(F)c(F)cc1F (stereo in doubt; 40a)", "value_reported": "< 5.00"}
{"compound": "CC(C)[C@H](NC(=O)c1ccncc1)C(=O)N1CCC[C@H]1B(O)O", "value_reported": "< 4.00"}
{"compound": "N[C@H](Cc1cc(F)ccc1F)[C@H]1CC[C@H](NCCCC(F)(F)F)CC1", "value_reported": "< 4.46"}
{"compound": "CC(C)(CC(=O)Nc1ccc(F)c(F)c1)NCC(=O)N1CCC[C@H]1C#N", "value_reported": "< 4.70"}
{"compound": "N#C[C@@H]1CCCN1C(=O)CNCCC(=O)NCCc1ccccc1", "value_reported": "< 4.70"}
